Some binders, each annotated with its measured RU.
Target Desc: T1, TIGIT (UniProt Q495A1 22-141, limits assumed)
T1 construct: also called T cell immunoreceptor with Ig and ITIM domains; hTIGIT
T1 sequence (looked up): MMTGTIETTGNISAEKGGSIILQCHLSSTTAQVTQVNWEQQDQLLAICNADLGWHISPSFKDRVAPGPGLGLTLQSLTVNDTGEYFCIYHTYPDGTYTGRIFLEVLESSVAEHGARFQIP
Test Name: SPR, VHH-V5-His
The reply should be a number in RU, with the unit left off.

Previously resolved entries follow.
INSERT INTO measurements (binder, measure_unit, observed_result) VALUES
  ('TIGIT-31-01 (VHH-V5-His) (VHH, also called TIGIT-31-1; 31-1; not shown: V5-His tag) VHH: EVQLVESGGGLVQPGGSLRLSCAASGFTFDRSWMGWFRQAPGKEREVVASITSGGSTYYADSVKGRFTISADNSKNTAYLQMNSLKPEDTAVYYCAADVWYGSTWRNWGQGTLVTVSS', 'RU', 122),
  ('TIGIT-31-26 (VHH-V5-His) (VHH, not shown: V5-His tag) VHH: EVQLVESGGGLVQPGGSLRLSCAASGFTFDRSWMGWFRQAPGKERELVAAITSGGSTYYADSVKGRFTISADNSKNTAYLQMNSLKPEDTAVYYCAADVWYGSTWRNWGQGTLVTVSS', 'RU', 59),
  ('TIGIT-31-35 (VHH-V5-His) (VHH, not shown: V5-His tag) VHH: EVQLVESGGGLVQPGGSLRLSCAASGFTFSTSWMGWFRQAPGKERELVASITSGGTTNYADSVKGRFTISADNSKNTAYLQMNSLKPEDTAVYYCAADVWYGSTWRNWGQGTLVTVSS', 'RU', 78);

Moving on to another binder below.
Quick note, RU for TIGIT-31-34 (VHH-V5-His) (VHH, not shown: V5-His tag) VHH: EVQLVESGGGLVQPGGSLRLSCAASGRSRYGMGWFRQAPGKEREFVSAISWSGISTYYADSVKGRFTISADNSKNTAYLQMNSLKPEDTAVYYCAATQWGSSGWKQARWYDWGQGTLVTVSS landed at 25300
